Entries annotated with measured average percentages of dead cells, COLO 829, sequential re-insertion
Tested on: COLO 829 cells
EXPERIMENTAL DETAILS: cytotoxicity in COLO 829 cells (LDH kit)
Assay type: cell-based
CONDITION INFO: sequential addition at 24-hour intervals, 92 hours; average over medium without and with inhibitor

Recorded results for 4 compounds are shown here.
[[record]]
compound = "O=C(CSc1nnc(-c2ccc3c(c2)OCO3)o1)Nc1ccon1 [Inhibitor No. 3]"
result = "1,95±0,15%"

[[record]]
compound = "Nc1nnc(-c2cc(-c3ccc(O)cc3)on2)o1 [Inhibitor No. 30]"
result = "1,38±0,18%"

[[record]]
compound = "O=C(CCS(=O)(=O)c1ccc(Cl)cc1)Nc1nnc(-c2ccno2)o1 [Inhibitor No. 29]"
result = "1,66±0,25%"

[[record]]
compound = "CS(=O)(=O)Nc1nnc(NC(=O)c2ccc3[nH]c4c(c3c2)CCCC4)s1 [Inhibitor No. 23]"
result = "2,40±0,09%"


Moving on to another compound below.
q: Which average percentages of dead cells, COLO 829, sequential re-insertion value belongs to COc1ccc(-c2cccc(-c3ccn(Cc4noc(C)n4)n3)c2)nn1 [Inhibitor No. 9] ?
a: 1,70±0,14%

* * *

System: COLO 829 cells
EXPERIMENTAL DETAILS: cytotoxicity in COLO 829 cells (LDH kit)
Type: cell-based
CONDITION INFO: single addition; average over control and different concentrations of inhibitor
Quick reference: average percent of dead COLO 829 cells of the listed items.

Examples from the recorded data:
[[record]]
molecule = "O=C(Nc1nnc(-c2ccno2)o1)[C@H]1COc2ccccc2O1 [Inhibitor No. 31]"
result = "8,26±0,38%"

[[record]]
molecule = "COc1ccc(-c2cccc(-c3ccn(Cc4noc(C)n4)n3)c2)nn1 [Inhibitor No. 9]"
result = "3,65±0,78%"

[[record]]
molecule = "O=C(CCS(=O)(=O)c1ccc(Cl)cc1)Nc1nnc(-c2ccno2)o1 [Inhibitor No. 29]"
result = "9,31±0,73%"

[[record]]
molecule = "O=C(CSc1nnc(-c2ccc3c(c2)OCO3)o1)Nc1ccon1 [Inhibitor No. 3]"
result = "5,01±1,08%"

[[record]]
molecule = "Nc1nnc(-c2cc(-c3ccc(O)cc3)on2)o1 [Inhibitor No. 30]"
result = "8,27±0,49%"


q: Data request, read-out average percent of dead COLO 829 cells, for CS(=O)(=O)Nc1nnc(NC(=O)c2ccc3[nH]c4c(c3c2)CCCC4)s1 [Inhibitor No. 23]
a: 9,23±0,6%

* * *

System: MDA-MB-231 cells
EXPERIMENTAL DETAILS: cytotoxicity in MDA-MB-231 cells (LDH kit)
Assay type: cell-based
CONDITION INFO: sequential addition at 24-hour intervals, 92 hours; average over medium without and with inhibitor
TEST READOUT: average percentages of dead cells, MDA-MB-231, sequential re-insertion

For orientation, consider the following solved cases.
[[record]]
compound = "O=C(CSc1nnc(-c2ccc3c(c2)OCO3)o1)Nc1ccon1"
tested_on = "MDA-MB-231 cells"
result = "2,05±0,18%"

[[record]]
compound = "COc1ccc(-c2cccc(-c3ccn(Cc4noc(C)n4)n3)c2)nn1"
tested_on = "MDA-MB-231 cells"
result = "1,85±0,05%"

[[record]]
compound = "O=C(CCS(=O)(=O)c1ccc(Cl)cc1)Nc1nnc(-c2ccno2)o1"
tested_on = "MDA-MB-231 cells"
result = "1,54±0,16%"


q: Find the recorded average percentages of dead cells, MDA-MB-231, sequential re-insertion belonging to `Nc1nnc(-c2cc(-c3ccc(O)cc3)on2)o1` and report it.
a: 2,00±0,18%

q: Likewise for `CS(=O)(=O)Nc1nnc(NC(=O)c2ccc3[nH]c4c(c3c2)CCCC4)s1` ?
a: 2,20±0,15%
